TARGET_OF_ASSAY: (NANP)6 (Plasmodium falciparum)
METHOD_SUMMARY: BLI, target on sensor
pKd: −log10 of the molar value.
MEASURED_ATTRIBUTE: pKd

# BINDER, VALUE
measured = [
    ("AB-007035 (antibody, V domains shown) VH: QMQLVESGGGVVQPGRSLRLSCTASGFTFSSYAMHWVRQSPGQGLQWVAVISYHSTNKYYEDSVRGRFTISRDNSKNTLYLQMNSLRAEDTAVYYCARDGYSSSFFDFWGQGTLVTVSS VL: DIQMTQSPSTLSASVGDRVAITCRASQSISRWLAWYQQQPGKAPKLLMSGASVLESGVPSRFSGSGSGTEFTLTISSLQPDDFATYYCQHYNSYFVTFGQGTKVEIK", 9.03),
]

src = patent US20220195023A1
